compounds and their reported pEC50
assay system: NL20 human bronchial epithelial cells expressing human Z-AAT (Homo sapiens, UniProt P01009, E366K)
Construct: doxycycline added with compounds)
Sequence (P01009 25-418 E366K): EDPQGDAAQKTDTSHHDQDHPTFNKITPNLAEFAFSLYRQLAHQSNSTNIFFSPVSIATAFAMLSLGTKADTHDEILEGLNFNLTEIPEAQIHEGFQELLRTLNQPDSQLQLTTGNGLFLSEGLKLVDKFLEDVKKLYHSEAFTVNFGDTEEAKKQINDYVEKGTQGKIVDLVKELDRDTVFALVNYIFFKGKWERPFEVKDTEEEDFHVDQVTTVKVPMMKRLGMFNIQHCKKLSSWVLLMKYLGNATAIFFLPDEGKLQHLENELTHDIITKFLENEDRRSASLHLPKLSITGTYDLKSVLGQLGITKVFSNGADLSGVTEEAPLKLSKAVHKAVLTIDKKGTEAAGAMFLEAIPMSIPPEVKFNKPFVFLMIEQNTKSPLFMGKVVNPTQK
test name: AAT Function Assay (MSD Assay NL20-SI Cell Line)
condition description: read-out: NL20 Functional EC50
pEC50: −log10 of the molar value.

A selection of reference data follows.
What value of pEC50 has been reported for the following compound? NC(=O)c1ccc(-n2c(C3CCOCC3)c(-c3ccc(F)cc3)c3cccc(O)c32)cc1 [Compound 380]
5.70 to 6.30

Request: O=C(O)c1ccc(-c2c(C3CCOCC3)n(-c3ccc(F)cc3)c3cc(F)cc(O)c23)cc1 [Compound 110]
> 6.30

Again, but for COc1cc(-n2c(C34CCC(OC)(CC3)C4)c(-c3ccc(C(=O)O)c(O)c3)c3c(O)cc(Cl)cc32)ccc1F [Compound 513]
> 6.30

# iterate: CC(C)(CC#N)c1c(-c2ccc(C(=O)O)s2)c2c(O)cc(F)cc2n1-c1ccc(F)c(F)c1 [Compound 292]
5.70 to 6.30

Also COc1cc(C(=O)O)ccc1-c1c(C2CCOCC2)n(-c2ccc(F)cc2)c2ccc(F)cc12 [Compound B13] ?
< 5.70

New cases:
What measured pEC50 goes with COc1cc(-c2c(C3CCOCC3)n(-c3ccc(F)c(C)c3)c3ccc(F)cc23)ccc1C(=O)O [Compound B10] ?
5.70 to 6.30

Note, next up: Cc1cc(-n2c(C(C)(C)CC#N)c(-c3cc(C)c(C(=O)O)s3)c3c(O)cc(F)cc32)ccc1F [Compound 367]
> 6.30

Attribution: patent US20230159502A1
